B1: library; numbered along this chain (parent)
chain: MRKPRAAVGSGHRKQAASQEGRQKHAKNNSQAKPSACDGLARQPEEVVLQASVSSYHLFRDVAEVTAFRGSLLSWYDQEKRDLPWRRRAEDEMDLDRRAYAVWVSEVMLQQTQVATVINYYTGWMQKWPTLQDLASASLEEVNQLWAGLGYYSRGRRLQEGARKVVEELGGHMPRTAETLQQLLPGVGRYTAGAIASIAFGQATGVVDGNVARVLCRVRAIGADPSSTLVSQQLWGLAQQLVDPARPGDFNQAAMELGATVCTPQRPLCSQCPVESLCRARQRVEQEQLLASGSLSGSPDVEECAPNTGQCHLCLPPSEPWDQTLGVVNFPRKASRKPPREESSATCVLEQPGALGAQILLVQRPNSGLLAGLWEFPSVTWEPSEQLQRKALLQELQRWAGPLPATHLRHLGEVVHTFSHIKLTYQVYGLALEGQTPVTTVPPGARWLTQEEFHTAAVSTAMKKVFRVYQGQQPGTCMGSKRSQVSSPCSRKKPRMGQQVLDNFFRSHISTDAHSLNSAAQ

variants of: B1; experiment: 8OG:A repair function score (normalized; synonymous = 0, nonsense = -1) (normalized log-likelihood score); higher = more repair activity (WT-like); conditions: with 8OG:A DNA repair reporter (GFP) in HEK-293 MUTYH KO cells;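 also: cells sorted at 72 h after reporter transfection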
measurement.name: 8OG:A repair function score
Lab note: jot the number down without any unit.

query: Tell me the measured 8OG:A repair function score of `L139I` , please.
result: 0.139

query: Next variant: `L183R`
result: -0.105

query: Next variant: `A41F`
result: 0.0355

query: Next variant: `S318F`
result: -0.00953

query: Next variant: `A115C`
result: -0.0964
